System: HEK293 NF-kB-luciferase reporter cells
Experiment notes: NF-kB luciferase reporter activity, robust Z-score vs plate median (robust Z-score (log luminescence)); higher = stronger NF-kB reporter activation
Measurement setup: TNF 40 ng/mL; TNF treatment time 8.5 h; transfection time 72 h
Grouping by measured NF-kB luciferase reporter activity is done with the following cut points: category 1: < -0.6; category 2: ≥ -0.6 and < 0.7; category 3: ≥ 0.7

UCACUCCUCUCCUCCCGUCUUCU: category 3
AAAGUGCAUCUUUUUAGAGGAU: category 2
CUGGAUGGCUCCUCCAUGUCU: category 1
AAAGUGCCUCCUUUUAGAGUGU: category 2
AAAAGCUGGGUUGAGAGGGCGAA: category 1
UUCACAGUGGCUAAGUUCCGC: category 3

Enquiry: State the band of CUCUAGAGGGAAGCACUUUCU
Return: category 2

Enquiry: For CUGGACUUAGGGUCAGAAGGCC , which NF-kB luciferase reporter activity bin applies?
Return: category 2

Enquiry: Which class does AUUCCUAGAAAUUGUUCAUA fall in?
Return: category 3

Enquiry: Please classify: UGGAGAGAAAGGCAGUUC
Return: category 2

Enquiry: Note: place this sequence into its band. Item: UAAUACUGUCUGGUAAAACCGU
Return: category 2

Enquiry: // bin(item) where item = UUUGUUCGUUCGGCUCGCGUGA
Return: category 1

Enquiry: For this sequence, which bin applies? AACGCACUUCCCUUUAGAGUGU
Return: category 3

Enquiry: Sort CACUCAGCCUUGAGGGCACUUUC into one of the categories.
Return: category 3

Enquiry: Determine which band this sequence sits in: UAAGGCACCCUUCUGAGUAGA
Return: category 1

Enquiry: Textbook exercise: identify the category of the sequence given here, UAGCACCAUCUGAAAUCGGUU , according to its measured value.
Return: category 1

Reference for the values: the supplement of paper PMC3621838
